Taken from patent US4065575A.

Test: Acute toxicity in mice (LD 50)
Format: in vivo
Details: mouse, in vivo; oral administration, mice, 15 days observation
Structures can show the parent of a compound that is named as a salt.
Threshold 300 mg/kg: LD50 at 360 h strictly smaller gives 1.0, otherwise 0.0.

| Compound | Class label |
| --- | --- |
| CCCCNCC1COc2ccccc2C1=O (stereo not drawn) [LJ 1049, hydrochloride] | 1.0 |
| CCCCCNCC1COc2ccccc2C1=O (stereo not drawn) [LJ 1046, hydrochloride] | 1.0 |
| COCCCCNCC1COc2ccccc2C1=O (stereo not drawn) [LJ 1053, hydrochloride] | 1.0 |
| COCCNCC1COc2ccccc2C1=O (stereo not drawn) [LJ 1052, hydrochloride] | 0.0 |
| CCCNCC1COc2ccccc2C1=O (stereo not drawn) [LJ 1048, hydrochloride] | 0.0 |
| COCCCNCC1COc2ccccc2C1=O (stereo not drawn) [LJ 1051, hydrochloride] | 0.0 |
